Provenance of the data: patent US20130230533A1

# Lookup of reported koff keyed by entry
TARGET OF ASSAY: T1, Dimeric human CD48-mFc (human)
T1 chain: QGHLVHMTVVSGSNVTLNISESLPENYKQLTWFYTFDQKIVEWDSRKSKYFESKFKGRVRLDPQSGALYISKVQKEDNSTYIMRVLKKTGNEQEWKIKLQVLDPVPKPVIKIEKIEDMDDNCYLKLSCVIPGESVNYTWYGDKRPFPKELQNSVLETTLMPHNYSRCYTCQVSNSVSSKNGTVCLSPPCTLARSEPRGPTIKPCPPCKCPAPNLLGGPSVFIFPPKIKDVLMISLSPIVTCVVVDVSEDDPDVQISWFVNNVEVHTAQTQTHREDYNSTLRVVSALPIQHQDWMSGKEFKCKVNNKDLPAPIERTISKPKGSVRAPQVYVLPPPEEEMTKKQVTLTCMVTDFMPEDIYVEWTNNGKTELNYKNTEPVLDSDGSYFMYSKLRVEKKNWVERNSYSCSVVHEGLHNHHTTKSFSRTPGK
ASSAY SUMMARY: SPR (Biacore T100), 25 C, antibody captured by anti-Fc, dimeric CD48-mFc in solution

BINDER	koff, s⁻¹
H4H1763N (antibody, human IgG4, V domains shown, Human IgG4 Fc (prefix H4H)) VH: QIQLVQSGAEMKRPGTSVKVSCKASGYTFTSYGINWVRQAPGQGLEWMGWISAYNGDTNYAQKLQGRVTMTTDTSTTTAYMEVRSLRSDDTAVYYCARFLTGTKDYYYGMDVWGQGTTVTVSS VL: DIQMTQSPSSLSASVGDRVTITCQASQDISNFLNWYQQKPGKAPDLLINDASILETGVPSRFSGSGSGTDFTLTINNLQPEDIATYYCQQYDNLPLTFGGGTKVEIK	5.48e-05
H4H1713N (antibody, human IgG4, V domains shown, Human IgG4 Fc (prefix H4H)) VH: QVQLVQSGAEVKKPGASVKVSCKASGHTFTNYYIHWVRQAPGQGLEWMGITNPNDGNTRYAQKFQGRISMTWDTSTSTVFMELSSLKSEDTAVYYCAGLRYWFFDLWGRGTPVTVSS VL: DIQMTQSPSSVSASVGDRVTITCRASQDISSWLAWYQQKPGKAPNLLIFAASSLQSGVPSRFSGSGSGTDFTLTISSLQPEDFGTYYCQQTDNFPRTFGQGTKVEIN	1.9e-05
H2M1712N (antibody, mouse IgG2, V domains shown, Human variable domains, mouse IgG2 Fc (prefix H2M)) VH: QIQLVQSGAEMKRPGTSVKVSCKASGYTFSSYGINWVRQAPGQGLEWMGWISAYNGDTNYAQKLQGRVTMTTDTSTTTAYMEVRSLRSDDTAVYYCARFLTGTKDLYYGMDVWGQGTTVTVSS VL: DIQMTQSPSSLSASVGDRVTITCQASQDISNFLNWYQQKPGKAPDLLINDASILETGVPSRFSGSGSGTDFTLTINSLQPEDIATYYCQQYDNLPLTFGGGTKVEIK	0.00053
